Values were extracted from ChEMBL document CHEMBL1201862.

- Test system: MOLT-4
- method: NCI tumour cell line growth inhibition, 48 h
Activity calls are given as the source filed them. No stated cut-off is given here; in the data, active = GI50 up to about 1.1 µM and inactive = higher.
property_measured: GI50

molecule	property_measured	reported
COc1ccc(/C=C\c2cc(OC)c(O[Si](C)(C)C(C)(C)C)c(OC)c2)cc1	GI50	15.8 µM (inactive)
CC(C)(C)C(=O)O[C@@H]1COC2C(O)COC21 (stereo not given in full)	GI50	19.7 µM (inactive)
Cc1cccc(C(=O)O)c1C(=O)c1cccc2ccccc12	GI50	33.1 µM (inactive)
C[C@H]1CC[C@@]2(OC1)O[C@H]1C[C@H]3[C@@H]4CC[C@@H]5C[C@@H](OC6OC(CO)C(O)C(O)C6OC6OC(CO)C(O)C(O)C6O)CC[C@]5(C)[C@H]4CC[C@]3(C)[C@H]1[C@@H]2C (stereo not given in full)	GI50	1.84 µM (inactive)
Nc1ccc2nc(N)n[n+]([O-])c2c1	GI50	> 100 µM (inactive)
c1cc(-c2ccc(-c3ccc(-c4ccc(-c5ccncc5)o4)cc3)o2)ccn1	GI50	6.34 µM (inactive)
CC1(C)C(N2CCOCC2)CS1(=O)=O (stereo not given)	GI50	> 10 µM (inactive)
O=C1c2ccccc2OP(=O)(OCC(F)(F)F)OC1(C(F)(F)F)C(F)(F)F (stereo not given)	GI50	> 100 µM (inactive)
O=c1[nH]c(=O)n(C2CC(O)C(CO)O2)c2nc3cc4ccccc4cc3nc12 (stereo not given)	GI50	61.7 µM (inactive)
CCOC(=O)N1CCN(c2ccc3ccc(N)nc3n2)CC1	GI50	74.1 µM (inactive)

====

- System: MDA-N
- method: NCI tumour cell line growth inhibition, 48 h
Activity calls are given as the source filed them. Rule as the data show it: active = GI50 up to about 1.1 µM and inactive = higher.
property_measured: GI50

                                   molecule  target_or_test_system             reported
0    Cn1c(N)c(/C=N/NC(=O)CC#N)c(=O)n(C)c1=O                  MDA-N  > 100 µM (inactive)
1  COC(=O)CC1c2ccccc2N2C(=O)Cc3c([nH]c4ccccc34)C12 (stereo not given)                  MDA-N  > 100 µM (inactive)
2     COc1ccc2[nH]c3c(c2c1)CCc1c(OC)cccc1-3                  MDA-N  > 100 µM (inactive)
3  CO/N=C(\C(=O)N(C)n1cnnc1)c1csc(NC(c2ccccc2)(c2ccccc2)c2ccccc2)n1                  MDA-N   > 10 µM (inactive)
4  CC(C)=NOC(=O)CNC(=O)C(Cc1ccccc1)NC(=O)C(C)NC(=O)OC(C)(C)C (stereo not given)                  MDA-N  > 100 µM (inactive)
5  Cc1c(F)c(N)c2c(=O)cc(-c3ccc(NC(=O)C(N)CCCNC(=N)N)c(F)c3)oc2c1F (stereo not given)                  MDA-N   32.1 µM (inactive)
6       CCOC(=O)c1cn(CC)c(=O)n2c1nc1ccccc12                  MDA-N  > 100 µM (inactive)
7  C=C/C(C)=C\CC1[C@](C)(O)CC[C@H]2C(C)(C)C(=O)CC[C@]12C (stereo not given in full)                  MDA-N   96.4 µM (inactive)
8  COC(=O)CCc1ccc2c(c1)CC1(C2)Cc2ccc3c(c2C1)CCC3 (stereo not given)                  MDA-N   87.9 µM (inactive)
9  OCC1OC(O[C@H]2CN3[C@H](O)[C@@H](O)[C@H](O)[C@H]3C2O)C(O)C(O)C1O (stereo not given in full)                  MDA-N  > 100 µM (inactive)

====

- Tested on: K562
- method: NCI tumour cell line growth inhibition, 48 h
Calls of active or inactive are those of the source. Cut-off read from the data, not from the text of the source: active = GI50 up to about 1.1 µM and inactive = higher.
Labels: YES = active, NO = inactive

molecule	answer_label
BrCCCCCOc1ccc(-c2c3ccccc3c(-c3ccc(OCCCCCBr)cc3)c3ccccc23)cc1	NO
O=C1CCCC2=C1CC1=C(CCCC1=O)N2c1cccc2ccccc12	NO
Cc1cc(C)nc(NS(=O)(=O)c2ccc(Nc3c4ccccc4nc4c(C(=O)Nc5ccc(S(=O)(=O)N=C(N)N)cc5)cccc34)cc2)n1	NO
CNc1nc2c(C)ccc3nc(N(C)C)[nH]c3c-2n1	NO
CCOC(=O)CCC(NC(=O)c1ccc(NC(OC)c2nc3cc(C(F)(F)F)ccc3nc2-c2ccccc2)cc1)C(=O)OCC (stereo not drawn)	NO
CCOC(=O)/C=C(/OCC)[C@@H]1C(C(=O)c2ccc(Cl)cc2)[C@H]1/C(=C\C(=O)OCC)OCC (stereo partly drawn)	NO
COc1ccc(NC(=O)C(=O)C(C(=O)c2ccccc2)C2OC(=O)c3ccccc32)c([N+](=O)[O-])c1 (stereo not drawn)	NO
CC1=C(/C(C)=N/NS(=O)(=O)c2ccc(C)cc2)Sc2ccccc2N1	NO
O=c1[nH]c(=O)n(C2CC(O)C(CO)O2)c2nc3cc4ccccc4cc3nc12 (stereo not drawn)	NO
N#Cc1c(N)nc(Sc2ccccc2N)c(C#N)c1-c1ccc(Cl)cc1	NO
N#Cc1cc([N+](=O)[O-])ccc1NC(=O)C(=O)C(C(=O)/C=C/c1ccccc1)C1OC(=O)c2ccccc21 (stereo not drawn)	NO
CC1(C)CC(=O)c2c(N)n[nH]c2C1	NO
COc1cccc(-c2cc(O)c3cc(OC)c(OC)cc3n2)c1	NO
Cc1nn(-c2ccccc2)c2nc3c(c(C)nn3-c3ccccc3)c(-c3ccccc3Br)c12	NO
CSc1nc(NC2OC(COC(C)=O)C(OC(C)=O)C(OC(C)=O)C2OC(C)=O)c(/N=C\C=N/c2c(NC3OC(COC(C)=O)C(OC(C)=O)C(OC(C)=O)C3OC(C)=O)nc(SC)n(C)c2=O)c(=O)n1C (stereo not drawn)	NO
COC(=O)c1c(C)cccc1C1CN=NC12Cc1ccc(C)c(C)c1C2=O (stereo not drawn)	NO
S=c1oc(CCCCCCCCc2nn(CNc3ccccc3)c(=S)o2)nn1CNc1ccccc1	NO
O=C1CCCc2cc3c(cc21)CC1(C3)Cc2cc3c(cc2C1)C(=O)CCC3	YES

====

- Tested on: SK-MEL-2
- method: NCI tumour cell line growth inhibition, 48 h
Activity calls are given as the source filed them. Cut-off read from the data, not from the text of the source: active = GI50 up to about 1.1 µM and inactive = higher.
Listed here are molecules together with their documented GI50.
property_measured: GI50

>>> df
                                    molecule  target_or_test_system             reported
 0       CCOC(=O)c1cn(CC)c(=O)n2c1nc1ccccc12               SK-MEL-2  > 100 µM (inactive)
 1              CC1(C)COC(c2cccnc2/C=N/O)=N1               SK-MEL-2  > 100 µM (inactive)
 2   CCOC(=O)P(=O)(O)c1ccc(N(C)Cc2ccccc2)cc1               SK-MEL-2  > 100 µM (inactive)
 3  CCOC(=O)c1c(SCCN2CCCC2)n(-c2ccccc2)c(=S)n(-c2ccccc2)c1=O               SK-MEL-2   11.4 µM (inactive)
 4  COC(=O)[C@H](CCSC)NC(=O)c1ccc(CNC(=O)/C=C/c2cccc(Oc3ccccc3)c2)cc1               SK-MEL-2   14.8 µM (inactive)
 5     COc1cc2oc3ccccc3c(=O)c2cc1CSc1ccccc1N               SK-MEL-2   6.95 µM (inactive)
 6      Cc1cc(C(=O)NCCN(C)C)c2nc3ccccc3nc2c1               SK-MEL-2   4.33 µM (inactive)
 7  O=C1CC(Cl)c2c1csc2Br (stereo unspecified)               SK-MEL-2   15.1 µM (inactive)
 8           CC/C(Cl)=N\OC(=O)Nc1ccc(C#N)cc1               SK-MEL-2   15.9 µM (inactive)
 9  OCC1OC(O[C@H]2CN3[C@H](O)[C@@H](O)[C@H](O)[C@H]3C2O)C(O)C(O)C1O (stereo partly specified)               SK-MEL-2  > 100 µM (inactive)
10         Br/C(=N\N=c1/nn[nH][nH]1)c1ccncc1               SK-MEL-2  > 100 µM (inactive)

====

- System: LOX IMVI
- method: NCI tumour cell line growth inhibition, 48 h
Calls of active or inactive are those of the source. Rule as the data show it: active = GI50 up to about 1.1 µM and inactive = higher.

compound	target_or_test_system	GI50
O=C(NCc1cccnc1)C(=O)NCc1cccnc1	LOX IMVI	> 100 µM (inactive)
CCC(C)C(NC(=O)c1cccc2c(=O)c3ccccc3[nH]c12)C(=O)O (stereo not given)	LOX IMVI	> 100 µM (inactive)
CCC1C(c2cccc(OC)c2O)c2cc3c(cc2OC1N1CCCC1)OCO3 (stereo not given)	LOX IMVI	23.3 µM (inactive)
COCCN1C2=CCCCC2=Nc2c1nc(N)[nH]c2=O	LOX IMVI	> 100 µM (inactive)
CCOC(=O)C1C(=O)C=C(c2cc(C)ccc2O)CC1c1cccc(Br)c1 (stereo not given)	LOX IMVI	15.6 µM (inactive)
CCOc1ccc(N2C(=O)NC3(c4ccccc4)N(C)C(=O)N(C)C23c2ccccc2)cc1 (stereo not given)	LOX IMVI	> 100 µM (inactive)
[B].c1ccc([Si](OCCN2CC2)(c2ccccc2)c2ccccc2)cc1	LOX IMVI	14.5 µM (inactive)
Cc1[nH]n(C2=NCCN2)c(=O)c1Cc1ccccc1	LOX IMVI	> 100 µM (inactive)
CC1(C)COC(c2cccnc2/C=N/O)=N1	LOX IMVI	> 100 µM (inactive)
Cc1ccc(/N=C2/SC(c3ccc(C)cc3)(c3ccc(C)cc3)c3ccccc32)cc1	LOX IMVI	> 100 µM (inactive)
O=C(CCC(=O)Nc1ccc(Cl)cc1)CC(=O)c1ccc(F)cc1	LOX IMVI	> 100 µM (inactive)
CC1CN=C(N(C(=O)Nc2ccc(Cl)cc2)c2cccc(Cl)c2)S1 (stereo not given)	LOX IMVI	21.6 µM (inactive)
Cc1cc(CNC(=O)OCc2ccccc2)c(C)c2c1Oc1ccccc1O2	LOX IMVI	> 100 µM (inactive)
CCNc1nc(N)c(C(=O)c2cccs2)s1	LOX IMVI	18.4 µM (inactive)
COc1ccc(N2C(=O)C3c4[nH]c5ccc(F)cc5c4C4CCC(c5ccccc5)CC4C3C2=O)cc1 (stereo not given)	LOX IMVI	36.8 µM (inactive)
CC(=O)NC(c1nc2cc(C)c(C)cc2[nH]1)c1nc2cc(C)c(C)cc2[nH]1	LOX IMVI	19 µM (inactive)
CC(C)(C)NCc1cc(Nc2ccnc3cc(Cl)ccc23)cc(-c2ccc(Cl)cc2)c1O	LOX IMVI	2.17 µM (inactive)
O=C(Nc1nc(C23CC4CC(CC(C4)C2)C3)cs1)c1cc2cc(Br)cc(Br)c2oc1=O	LOX IMVI	> 100 µM (inactive)
c1ccc(Nc2nnc(Cn3ccc4ccccc43)s2)cc1	LOX IMVI	56 µM (inactive)
C=C1CC[C@@]2(OC1)OC1C[C@H]3[C@@H]4CC=C5C[C@@H](O)CC(OC6OCC(OC(=O)[C@@H](O)[C@@H](C)CC)C(OC(C)=O)C6OC6OC(C)C(O)C(O)C6O)[C@]5(C)[C@H]4CC[C@]3(C)C1[C@@H]2C (stereo not given in full)	LOX IMVI	1.87 µM (inactive)
